target: human C1s protein (Homo sapiens, UniProt P09871); construct: A104; assay: C1s enzymatic assay (hydrolysis of YLGR-Rh110-dPro); format: biochemical; settings: substrate YLGR-Rh110-dPro 20 μM, 15 min pre-incubation, 60 min RT, fluorescence, read-out: hC1s pIC50 (converted)
Structures can show the parent of a compound that is named as a salt.
READOUT_NAME: IC50 (nM)

COMPOUND	SUBJECT_OF_TEST	READOUT_NAME	VALUE
Cc1nnc(N)c2ccc(-c3c(C(F)(F)F)ccc(B(O)O)c3F)cc12	human C1s protein (Homo sapiens, UniProt P09871)	IC50	129

1. Nc1cnnc2cc(-c3cc(B(O)O)ccc3OC(F)C(F)(F)F)ccc12 (centres unmarked)
2. Cc1nnc(N)c2ccc(-c3cc(B(O)O)ccc3NC(=O)c3cnsc3)cc12
3. Cc1nc2c(-c3ccc4c(N)cnnc4c3)cc(B(O)O)cc2o1 [Example 119, Formic Acid Salt]
[ask] Form: Sort by [IC50] Order [ ascending ] Sort the labels as requested; that list is your answer.
[reply] 3, 1, 2

----------
target: human C1s protein (Homo sapiens, UniProt P09871); construct: A104; assay: C1s enzymatic assay (hydrolysis of YLGR-Rh110-dPro); format: biochemical; settings: substrate YLGR-Rh110-dPro 20 μM, 15 min pre-incubation, 60 min RT, fluorescence, read-out: hC1s pIC50 (converted)
Counter-ions that a name gives are not always drawn.
READOUT_NAME: IC50 (nM)

Below, 2 compounds whose answers are already recorded.
COMPOUND	IC50 (nM)
Nc1cnnc2cc(-c3cc(B(O)O)cc4ccoc34)ccc12	0.776
CC1(C)COC(COc2ccc(B(O)O)cc2-c2ccc3c(N)cnnc3c2)C1 (stereo not shown)	1.05

1. Cc1nnc(N)c2ccc(-c3cc(B(O)O)ccc3OC(F)F)cc12 [Example 131, Formic Acid Salt]
2. COCCOCCOCCOCCOCCOCCOc1ccc(B(O)O)cc1-c1ccc2c(N)nnc(C)c2c1
[ask] Given 1 and 2 , report the one with the higher recorded IC50. Write down the label of the entry you select.
[reply] 2

P. CC(C)c1nnc(N)c2ccc(-c3cccc(B(O)O)c3)cc12
Q. COc1ccc(B(O)O)cc1-c1ccc2c(N)nncc2c1 [Example 2, Formic Acid Salt]
[ask] Between the entries labeled P and Q , whose measured IC50 is lower? Write down the label of the entry you select.
[reply] Q
(Q: 6.31 nM, P: 513 nM)

I. CC(F)(F)Oc1ccc(B(O)O)cc1-c1ccc2c(N)cnnc2c1 [Example 163, Formic Acid Salt]
II. Cn1nc(C2CC2)c2c(B(O)O)cc(-c3ccc4c(N)cnnc4c3)cc21
III. COc1c(C)cc(-c2ccc3c(N)nnc(C)c3c2)cc1B(O)O
[ask] Form: Sort by [IC50] Order [ ascending ] Sort the labels as requested; that list is your answer.
[reply] III, I, II

P. Nc1cnnc2cc(-c3cc(B(O)O)cc4c3OCCC4)ccc12 [Example 145, Formic Acid Salt]
Q. COc1cc(C2CC2)c(B(O)O)cc1-c1ccc2c(N)nnc(C)c2c1
R. CC(C)CCC(=O)Nc1ccc(B(O)O)cc1-c1ccc2c(N)cnnc2c1 [Example 65, Formic Acid Salt]
[ask] Form: Sort by [IC50] Order [ ascending ] Sort the labels as requested; that list is your answer.
[reply] Q, P, R

----------
biological target: human C1s protein (Homo sapiens); construct: A104; assay: C1s enzymatic assay (hydrolysis of YLGR-Rh110-dPro); type: biochemical; details: substrate YLGR-Rh110-dPro 20 μM, 15 min pre-incubation, 60 min RT, fluorescence, read-out: hC1s pIC50 (converted)
Counter-ions that a name gives are not always drawn.
READOUT_NAME: IC50 (nM)

COMPOUND	SUBJECT_OF_TEST	IC50, nM
COCCOCCOCCOCCOCCOCCOc1ccc(B(O)O)cc1-c1ccc2c(N)cnnc2c1	human C1s protein (Homo sapiens)	3.09
COc1c(C)cc(B(O)O)cc1-c1ccc2c(N)nnc(C)c2c1 [Example 42, Formic Acid Salt]	human C1s protein (Homo sapiens)	1.38
Nc1cnnc2cc(-c3cc(B(O)O)ccc3N3CCOCC3)ccc12 [Example 143, Formic Acid Salt]	human C1s protein (Homo sapiens)	57.5
COc1ccc(B(O)O)cc1-c1ccc2c(N)cnnc2c1	human C1s protein (Homo sapiens)	0.589

P. Cc1nnc(N)c2ccc(-c3cc(B(O)O)cnc3C(F)(F)F)cc12
Q. COc1cc(OC(F)(F)F)c(B(O)O)cc1-c1ccc2c(N)nnc(C)c2c1
[ask] Given P and Q , report the one with the higher recorded IC50. Write down the label of the entry you select.
[reply] P

----------
molecular target: human C1s protein (Homo sapiens); construct: A104; assay: C1s enzymatic assay (hydrolysis of YLGR-Rh110-dPro); format: biochemical; conditions: substrate YLGR-Rh110-dPro 20 μM, 15 min pre-incubation, 60 min RT, fluorescence, read-out: hC1s pIC50 (converted)
Counter-ions that a name gives are not always drawn.
READOUT_NAME: IC50 (nM)

Below, 2 compounds whose answers are already recorded.
COMPOUND	VALUE
C[C@@H]1C[C@H](Oc2ccc(B(O)O)cc2-c2ccc3c(N)cnnc3c2)C[C@H](C)O1 [Example 123, Formic Acid Salt]	0.851
Nc1cnnc2cc(-c3cc(B(O)O)ccc3OC(F)(F)C(F)F)ccc12	1.12

I. COc1cc(C)c(B(O)O)cc1-c1ccc2c(N)nnc(C)c2c1 [Example 28, Formic Acid Salt]
II. COc1cc(Cl)c(B(O)O)cc1-c1ccc2c(N)nnc(C)c2c1
[ask] Between the entries labeled I and II , whose measured IC50 is lower? Write down the label of the entry you select.
[reply] II

----------
Biological target: human C1s protein (Homo sapiens)
Construct: A104
Sequence (P09871 16-688): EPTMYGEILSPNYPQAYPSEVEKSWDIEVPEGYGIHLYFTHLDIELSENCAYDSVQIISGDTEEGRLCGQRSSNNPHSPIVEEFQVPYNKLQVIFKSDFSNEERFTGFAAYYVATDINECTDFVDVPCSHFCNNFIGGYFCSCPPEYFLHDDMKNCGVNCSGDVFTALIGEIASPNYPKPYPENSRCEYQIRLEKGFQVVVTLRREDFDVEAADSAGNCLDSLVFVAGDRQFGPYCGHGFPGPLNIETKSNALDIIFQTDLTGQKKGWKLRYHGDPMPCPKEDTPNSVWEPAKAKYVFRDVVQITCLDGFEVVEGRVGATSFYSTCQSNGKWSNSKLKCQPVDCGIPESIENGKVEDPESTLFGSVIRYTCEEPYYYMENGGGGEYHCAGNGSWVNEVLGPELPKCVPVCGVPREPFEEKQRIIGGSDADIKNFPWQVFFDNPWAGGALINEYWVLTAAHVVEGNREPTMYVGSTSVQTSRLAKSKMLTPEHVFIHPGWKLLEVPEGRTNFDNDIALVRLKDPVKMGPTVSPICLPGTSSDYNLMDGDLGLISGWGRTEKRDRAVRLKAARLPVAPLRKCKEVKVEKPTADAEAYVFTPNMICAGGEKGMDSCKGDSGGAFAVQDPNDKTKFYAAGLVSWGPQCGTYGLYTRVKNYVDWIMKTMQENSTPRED
Experiment: C1s enzymatic assay (hydrolysis of YLGR-Rh110-dPro)
Assay type: biochemical
Conditions: substrate YLGR-Rh110-dPro 20 μM, 15 min pre-incubation, 60 min RT, fluorescence, read-out: hC1s pIC50 (converted)
Structures can show the parent of a compound that is named as a salt.
READOUT_NAME: IC50 (nM)

COMPOUND	IC50, nM
Nc1cnnc2cc(-c3cc(B(O)O)ccc3OC3CCOCC3)ccc12 [Example 51, Formic Acid Salt]	0.724
Cc1nnc(N)c2ccc(-c3cc(B(O)O)cc(P(C)(C)=O)c3)cc12 [Example 40, Formic Acid Salt]	1.02

----------
target: human C1s protein (Homo sapiens, UniProt P09871); construct: A104; assay: C1s enzymatic assay (hydrolysis of YLGR-Rh110-dPro); assay type: biochemical; conditions: substrate YLGR-Rh110-dPro 20 μM, 15 min pre-incubation, 60 min RT, fluorescence, read-out: hC1s pIC50 (converted)
Counter-ions that a name gives are not always drawn.
READOUT_NAME: IC50 (nM)

COMPOUND	SUBJECT_OF_TEST	IC50 (nM)
Cc1nnc(N)c2ccc(-c3cc(B(O)O)ccc3P(C)(C)=O)cc12 [Example 62, Formic Acid Salt]	human C1s protein (Homo sapiens, UniProt P09871)	28.8
COc1ccc(B(O)O)cc1-c1cc(F)c2c(N)cnnc2c1	human C1s protein (Homo sapiens, UniProt P09871)	15.1
O=CO.[2H]C([2H])([2H])Oc1ccc(B(O)O)cc1-c1ccc2c(N)cnnc2c1	human C1s protein (Homo sapiens, UniProt P09871)	1.26
Nc1cnnc2cc(-c3cc(B(O)O)ccc3Oc3ccc(F)cc3)ccc12 [Example 167, Formic Acid Salt]	human C1s protein (Homo sapiens, UniProt P09871)	1.66
Cc1nnc(N)c2ccc(-c3cc(B(O)O)ccc3NC(=O)C3CC(F)(F)CN3)cc12 (stereo in doubt)	human C1s protein (Homo sapiens, UniProt P09871)	4.57
Cc1nnc(N)c2ccc(-c3cncc(B(O)O)c3)cc12	human C1s protein (Homo sapiens, UniProt P09871)	1.74

1. Nc1cnnc2cc(-c3cc(B(O)O)ccc3OCCC3CC3)ccc12
2. Cc1ccc(B(O)O)cc1-c1ccc2c(N)nnc(C)c2c1 [Example 10, Formic Acid Salt]
[ask] Given 1 and 2 , report the one with the higher recorded IC50. Write down the label of the entry you select.
[reply] 2
(2: 6.92 nM, 1: 0.794 nM)

I. Cc1cc(C#N)c(-c2ccc3c(N)nnc(C)c3c2)cc1B(O)O
II. COc1ncc(B(O)O)cc1-c1ccc2c(N)nnc(C)c2c1
[ask] Given I and II , report the one with the higher recorded IC50. Write down the label of the entry you select.
[reply] II
(II: 2.04 nM, I: 1.2 nM)
